Metric Name: melting point

query: Quick one: melting point for CCCCCN(CCC12CC3CC(CC(C3)C1)C2)C(=O)NCc1cccnc1 [Compound No. 1-73] ?
result: 88.5 to 101.5 °C

query: Field request: melting point | item: O=C(NCCCc1ccncc1)N(CCC12CC3CC(CC(C3)C1)C2)Cc1cccs1 [Compound No. 1-27]
result: 142.5 to 144.5 °C

query: Find the recorded melting point belonging to O=C(NCCCc1ccncc1)N(CC=Cc1ccccc1)CCC12CC3CC(CC(C3)C1)C2 [Compound No. 1-34] and report it.
result: 130 to 134.5 °C

query: For the compound shown here, CC(C)=CCN(CCC12CC3CC(CC(C3)C1)C2)C(=O)NCCCc1ccncc1 [Compound No. 1-31] , give the reported melting point.
result: 93 to 96 °C

query: Which melting point value belongs to CCCCCN(CCC12CC3CC(CC(C3)C1)C2)C(=O)NC(C)CCc1ccncc1 (stereo not shown) [Compound No. 1-137] ?
result: 128.5 to 129 °C

query: Any idea what melting point was measured for CCCCCCCCCCN(CCC12CC3CC(CC(C3)C1)C2)C(=O)NCCCc1ccncc1 [Compound No. 1-32] ?
result: 75 to 76 °C

query: Would you kindly share the measured melting point for CCCCCNC(=O)N(CCCc1ccncc1)CCC12CC3CC(CC(C3)C1)C2 [Compound No. 1-66] ?
result: 47 to 50 °C

query: Would you mind telling me what melting point value was observed for CCCCCN(CCC12CC3CC(CC(C3)C1)C2)C(=O)NCCc1ccncc1 [Compound No. 1-80] ?
result: 107 to 118 °C

query: Would you mind telling me what melting point value was observed for CCCCCN(CCC12CC3CC(CC(C3)C1)C2)C(=O)NCCNc1ccncc1 [Compound No. 1-126] ?
result: 133.9 to 134.5 °C

query: For O=C(NCCCc1ccncc1)N(CCC(F)(F)F)CCC12CC3CC(CC(C3)C1)C2 [Compound No. 1-24] , what is its reported melting point?
result: 107.5 to 109 °C

query: Item Cl.O=C1CCN(CCCc2ccncc2)C(=O)N1CCC12CC3CC(CC(C3)C1)C2 has what recorded melting point?
result: 170 °C

query: Tell me the measured melting point of O=C(NCCCc1ccncc1)N(CCC12CC3CC(CC(C3)C1)C2)CCC12CC3CC(CC(C3)C1)C2 [Compound No. 1-56] , please.
result: 80 °C

query: Item CC(C)N(CCC12CC3CC(CC(C3)C1)C2)C(=O)NCCCc1ccncc1 [Compound No. 1-68] has what recorded melting point?
result: 132 to 134 °C
